Let's look at some compounds and their measured IC50.
Target: UniProt P00533
Assay details: Inhibition of tyrosine kinase activity of Epidermal growth factor receptor from human A431 cells
Endpoint label: IC50 (nM)

Brc1cccc(Nc2ncnc3cc4[nH]nnc4cc23)c1; 4.1
Brc1cccc(Nc2ncnc3cc4[nH]ncc4cc23)c1; 0.44
CN(C)CCn1cnc2cc3ncnc(Nc4cccc(Br)c4)c3cc21; 1.32
CN(C)CCn1cnc2cc3c(Nc4cccc(Br)c4)ncnc3cc21; 22
Brc1cccc(Nc2ncnc3cc4cn[nH]c4cc23)c1; 0.34
CN(C)CCn1cnc2c(Cl)c3c(Nc4cccc(Br)c4)ncnc3cc21; 203

###

Target: Epidermal growth factor receptor (Homo sapiens, UniProt P00533)
Sequence (P00533 whole entry): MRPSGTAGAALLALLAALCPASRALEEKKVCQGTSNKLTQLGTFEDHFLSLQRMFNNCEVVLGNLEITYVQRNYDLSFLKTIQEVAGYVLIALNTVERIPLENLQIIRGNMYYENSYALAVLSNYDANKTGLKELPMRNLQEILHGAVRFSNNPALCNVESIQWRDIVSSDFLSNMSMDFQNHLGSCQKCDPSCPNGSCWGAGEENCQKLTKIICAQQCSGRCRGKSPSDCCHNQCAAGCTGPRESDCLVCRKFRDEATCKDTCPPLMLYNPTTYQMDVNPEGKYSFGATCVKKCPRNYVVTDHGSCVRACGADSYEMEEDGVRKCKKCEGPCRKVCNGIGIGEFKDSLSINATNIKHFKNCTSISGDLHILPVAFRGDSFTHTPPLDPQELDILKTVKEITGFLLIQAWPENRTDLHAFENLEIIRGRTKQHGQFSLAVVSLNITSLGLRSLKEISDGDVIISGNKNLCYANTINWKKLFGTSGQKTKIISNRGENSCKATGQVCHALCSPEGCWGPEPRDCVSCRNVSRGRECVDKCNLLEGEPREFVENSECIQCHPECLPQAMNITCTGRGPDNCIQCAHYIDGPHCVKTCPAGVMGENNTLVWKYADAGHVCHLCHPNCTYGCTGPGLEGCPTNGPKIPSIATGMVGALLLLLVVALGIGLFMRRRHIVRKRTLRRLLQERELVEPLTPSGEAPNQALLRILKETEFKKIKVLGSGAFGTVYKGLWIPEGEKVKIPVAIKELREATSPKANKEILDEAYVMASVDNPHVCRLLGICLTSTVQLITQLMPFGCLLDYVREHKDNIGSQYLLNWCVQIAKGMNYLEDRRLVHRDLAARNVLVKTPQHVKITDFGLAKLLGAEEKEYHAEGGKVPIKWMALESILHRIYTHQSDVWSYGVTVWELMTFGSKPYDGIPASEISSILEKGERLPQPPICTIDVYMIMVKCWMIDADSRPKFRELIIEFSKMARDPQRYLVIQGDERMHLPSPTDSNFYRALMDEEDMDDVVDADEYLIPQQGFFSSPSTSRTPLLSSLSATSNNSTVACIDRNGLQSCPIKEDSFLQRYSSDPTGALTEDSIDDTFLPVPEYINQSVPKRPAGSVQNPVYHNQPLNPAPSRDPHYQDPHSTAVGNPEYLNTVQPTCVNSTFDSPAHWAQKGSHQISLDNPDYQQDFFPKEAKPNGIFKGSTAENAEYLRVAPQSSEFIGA
Assay details: Inhibition of tyrosine kinase activity of Epidermal growth factor receptor from human A431 carcinoma cells
IC50: recorded values
Endpoint label: IC50 (nM)

Cc1nc2cc3ncnc(Nc4cccc(Br)c4)c3cc2[nH]1; 0.29
Brc1cccc(Nc2ncnc3cc4ccccc4cc23)c1; 0.003
Brc1cccc(Nc2ncnc3c2ccc2[nH]cnc23)c1; 272
Cn1cnc2cc3ncnc(Nc4cccc(Br)c4)c3cc21; 0.01
Brc1cccc(Nc2ncnc3cc4[nH]ccc4cc23)c1; 0.44
Brc1cccc(Nc2ncnc3cc4ncsc4cc23)c1; 44
Brc1cccc(Nc2ncnc3ccc4cc[nH]c4c23)c1; 1.24

###

Target: Platelet-derived growth factor receptor (Mus musculus, UniProt P05622+P26618)
Assay details: Inhibition of PDGF-mediated mitogenesis in Swiss 3T3 cells
pIC50: −log10 of the molar value.
Endpoint label: pIC50

Brc1cccc(Nc2ncnc3cc4[nH]cnc4cc23)c1; < 4.30

###

Assay details: Inhibitory activity against v-src enzyme.
pIC50: −log10 of the molar value.
Endpoint label: pIC50

Brc1cccc(Nc2ncnc3cc4[nH]cnc4cc23)c1; < 4.30
